target: human CMKLR1 (Homo sapiens); construct: host or cells: HEK293A (Invitrogen), stably expressing human Gα15; test: Ca2+ mobilization (CellLux imaging) agonist assay in HEK293A cells expressing CMKLR1 and Gα15; assay type: cell-based; conditions: Ca2+ mobilization, CMKLR1; decimal comma
Square brackets hold non-standard residues; d marks the D form. Peptide text beside a SMILES is read from it.
reportedEndpoint: max response

I looked up CC(C)C[C@H](NC(=O)[C@@H](N)Cc1ccc(O)cc1)C(=O)N1CCC[C@H]1C(=O)NCC(=O)N[C@@H](CCC(N)=O)C(=O)N[C@@H](Cc1ccccc1)C(=O)N[C@H](Cc1ccc(O)cc1)C(=O)N[C@@H](Cc1ccccc1)C(=O)N[C@@H](CO)C(=O)O [compound 57] (H-YLPGQF[dY]FS-OH; N-terminus assumed) and its max response for human CMKLR1 (Homo sapiens) was 0,89 DF/F0

Hey, human CMKLR1 (Homo sapiens) data for CC(C)C[C@H](NC(=O)[C@H](N)Cc1ccccc1)C(=O)N1CCC[C@H]1C(=O)NCC(=O)N[C@@H](CCC(N)=O)C(=O)N[C@@H](Cc1ccc(O)cc1)C(=O)N[C@@H](C)C(=O)N[C@@H](Cc1ccccc1)C(=O)N[C@H](CO)C(=O)O [compound 95] (H-[dF]LPGQYAF[dS]-OH; N-terminus assumed) : max response came out at 1,75 DF/F0

Known value: human CMKLR1 (Homo sapiens) max response of the compound C[C@H](NC(=O)[C@H](Cc1ccc(O)cc1)NC(=O)[C@H](CCC(N)=O)NC(=O)CNC(=O)[C@@H]1CCCN1C(=O)[C@H](CCCNC(=N)N)NC(=O)[C@@H](N)Cc1ccc(O)cc1)C(=O)N[C@@H](Cc1ccccc1)C(=O)N[C@H](CO)C(=O)O [compound 84] (H-YRPGQYAF[dS]-OH; N-terminus assumed) equals 1,84 DF/F0

* * *

biological target: human CMKLR1 (Homo sapiens); construct: host or cells: HEK293A (Invitrogen), stably expressing human Gα15; assay: Ca2+ mobilization (CellLux imaging) agonist assay in HEK293A cells expressing CMKLR1 and Gα15; assay type: cell-based; details: Ca2+ mobilization, CMKLR1; decimal comma
Square brackets hold non-standard residues; d marks the D form. Peptide text beside a SMILES is read from it.
Here, each record is paired with measured max response data.

# molecule, testSystem, max response
rows = [
    ("CC(C)C[C@H](NC(=O)[C@@H](N)Cc1ccc(O)cc1)C(=O)N1CCC[C@H]1C(=O)N[C@H](Cc1ccc(O)cc1)C(=O)N[C@H](CCC(N)=O)C(=O)N[C@@H](Cc1ccc(O)cc1)C(=O)N[C@@H](C)C(=O)N[C@@H](CCC(N)=O)C(=O)N[C@H](Cc1ccccc1)C(=O)O [compound 150] (H-YLP[dY][dQ]YAQ[dF]-OH; N-terminus assumed)", "human CMKLR1 (Homo sapiens)", "1,35 DF/F0"),
]

The molecule CC(C)C[C@H](NC(=O)[C@H](C)NC(=O)[C@H](Cc1ccc(O)cc1)NC(=O)[C@@H](Cc1ccc(O)cc1)NC(=O)CNC(=O)[C@@H]1CCCN1C(=O)[C@H](CC(C)C)NC(=O)[C@@H](N)Cc1ccc(O)cc1)C(=O)N[C@H](Cc1ccccc1)C(=O)O [compound 136] (H-YLPG[dY]YAL[dF]-OH; N-terminus assumed) on human CMKLR1 (Homo sapiens): max response was 1,4 DF/F0

* * *

test: In vitro peptide stability in human serum (RP-HPLC); conditions: human, human serum, 25% (v/v) in RPMI
Square brackets hold non-standard residues; d marks the D form. Peptide text beside a SMILES is read from it.
reportedEndpoint: half-life at 50 µg/mL (h)
Please reply with the bare figure in h and do not write the unit itself.

# compound, reportedEndpoint, unitLabel, measured
data = [
    ("CC(C)C[C@H](NC(=O)[C@@H](N)Cc1ccc(O)cc1)C(=O)N1CCC[C@H]1C(=O)N[C@H](C)C(=O)N[C@@H](CCC(N)=O)C(=O)N[C@@H](Cc1ccc(O)cc1)C(=O)N[C@@H](C)C(=O)N[C@@H](Cc1ccccc1)C(=O)N[C@H](CO)C(=O)O [YLPaQYAFs] (H-YLP[dA]QYAF[dS]-OH; N-terminus assumed)", "half-life at 50 µg/mL", "h", 1.83),
]

Query CC(C)C[C@H](NC(=O)[C@H](Cc1ccccc1)NC(=O)CNC(=O)[C@@H]1CCCN1C(=O)[C@H](CC(C)C)NC(=O)[C@@H](N)Cc1ccccc1)C(=O)N[C@@H](C)C(=O)N[C@@H](CC(C)C)C(=O)N1CCC[C@@H]1C(=O)O [compound 72] (H-FLPGFLAL[dP]-OH; N-terminus assumed) yields half-life at 50 µg/mL of 3.63

* * *

Biological target: human CMKLR1 (Homo sapiens)
Construct: host or cells: HEK293A (Invitrogen), stably expressing human Gα15
Sequence (Q99788 1-373): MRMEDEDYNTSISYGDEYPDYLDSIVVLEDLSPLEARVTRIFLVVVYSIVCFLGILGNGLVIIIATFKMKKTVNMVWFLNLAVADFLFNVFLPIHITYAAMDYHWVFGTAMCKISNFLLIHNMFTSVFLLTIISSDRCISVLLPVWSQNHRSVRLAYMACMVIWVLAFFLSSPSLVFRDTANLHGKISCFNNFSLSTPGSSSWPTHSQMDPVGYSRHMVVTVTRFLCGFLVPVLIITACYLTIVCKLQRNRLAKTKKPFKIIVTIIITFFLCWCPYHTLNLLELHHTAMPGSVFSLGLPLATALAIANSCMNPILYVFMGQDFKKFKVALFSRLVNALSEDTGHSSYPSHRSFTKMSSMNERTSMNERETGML
Experiment: Ca2+ mobilization (CellLux imaging) agonist assay in HEK293A cells expressing CMKLR1 and Gα15
Assay type: cell-based
Details: Ca2+ mobilization, CMKLR1; decimal comma
Square brackets hold non-standard residues; d marks the D form. Peptide text beside a SMILES is read from it.
reportedEndpoint: max response

# compound, measured
records = [
    ("CC(C)C[C@H](NC(=O)[C@@H](N)Cc1ccccc1)C(=O)N1CCC[C@H]1C(=O)NCC(=O)N[C@@H](CCC(N)=O)C(=O)N[C@@H](Cc1ccccc1)C(=O)N[C@@H](C)C(=O)N[C@@H](Cc1ccccc1)C(=O)N1CCC[C@@H]1C(=O)O [compound 110] (H-FLPGQFAF[dP]-OH; N-terminus assumed)", "1,59 DF/F0"),
]

Read the next record carefully.
Entry CC(C)[C@H](NC(=O)[C@@H](N)Cc1ccc(O)cc1)C(=O)N1CCC[C@H]1C(=O)NCC(=O)N[C@@H](CCC(N)=O)C(=O)N[C@@H](Cc1ccc(O)cc1)C(=O)N[C@@H](C)C(=O)N[C@@H](Cc1ccccc1)C(=O)N[C@H](CO)C(=O)O [compound 86] (H-YVPGQYAF[dS]-OH; N-terminus assumed) — recorded max response = 1,57 DF/F0

* * *

target: human CMKLR1 (Homo sapiens); construct: host or cells: HEK293A (Invitrogen), stably expressing human Gα15; experiment: Ca2+ mobilization (CellLux imaging) agonist assay in HEK293A cells expressing CMKLR1 and Gα15; assay type: cell-based; conditions: intracellular calcium mobilization, HEK293 cells expressing CMKLR1; mean of three independent experiments ± SD; read-out: activity: EC50 ±SD
Square brackets hold non-standard residues; d marks the D form. Peptide text beside a SMILES is read from it.
reportedEndpoint: pEC50
Notebook: values listed as pEC50 are -log10 of the concentration (mol/L).

Kindly note the recorded pEC50 for CC(C)C[C@H](NC(=O)[C@H](N)Cc1ccc(O)cc1)C(=O)N1CCC[C@H]1C(=O)N[C@H](CO)C(=O)N[C@@H](CCC(N)=O)C(=O)N[C@@H](Cc1ccc(O)cc1)C(=O)N[C@@H](C)C(=O)N[C@@H](Cc1ccccc1)C(=O)N[C@H](CO)C(=O)O [yLPsQYAFs] (H-[dY]LP[dS]QYAF[dS]-OH; N-terminus assumed) , which is 8.54

Recorded pEC50 (compound CC(C)C[C@H](NC(=O)[C@@H](N)Cc1ccc(O)cc1)C(=O)N1CCC[C@H]1C(=O)N[C@H](CCC(N)=O)C(=O)N[C@@H](CCC(N)=O)C(=O)N[C@@H](Cc1ccc(O)cc1)C(=O)N[C@@H](C)C(=O)N[C@@H](Cc1ccccc1)C(=O)N[C@H](Cc1ccccc1)C(=O)O [YLPqQYAFf] (H-YLP[dQ]QYAF[dF]-OH; N-terminus assumed) ): 8.37

Summary for this compound, CC(C)C[C@H](NC(=O)[C@H](N)Cc1ccccc1)C(=O)N1CCC[C@H]1C(=O)NCC(=O)N[C@@H](CCC(N)=O)C(=O)N[C@@H](Cc1ccc(O)cc1)C(=O)N[C@@H](C)C(=O)N[C@@H](Cc1ccccc1)C(=O)N[C@H](Cc1ccccc1)C(=O)O [fLPGQYAFf] (H-[dF]LPGQYAF[dF]-OH; N-terminus assumed) : pEC50 is 8.09

// pEC50 value for CC(C)C[C@H](NC(=O)[C@@H](N)Cc1ccc(O)cc1)C(=O)N1CCC[C@H]1C(=O)NCC(=O)N[C@@H](CCC(N)=O)C(=O)N[C@@H](Cc1ccc(O)cc1)C(=O)N[C@H](Cc1c[nH]c2ccccc12)C(=O)N[C@@H](Cc1ccccc1)C(=O)N[C@H](Cc1ccccc1)C(=O)O [YLPGQYwFf] (H-YLPGQY[dW]F[dF]-OH; N-terminus assumed) : 8.49

pEC50 recorded for this compound, CC(C)C[C@H](NC(=O)[C@@H](N)Cc1ccc(O)cc1)C(=O)N1CCC[C@H]1C(=O)N[C@H](C)C(=O)N[C@@H](CCC(N)=O)C(=O)N[C@@H](Cc1ccc(O)cc1)C(=O)N[C@@H](C)C(=O)N[C@@H](Cc1ccccc1)C(=O)N[C@H](CO)C(=O)O [YLPaQYAFs] (H-YLP[dA]QYAF[dS]-OH; N-terminus assumed) , is 8.35

The reported value for C[C@H](NC(=O)[C@H](Cc1ccc(O)cc1)NC(=O)[C@H](CCC(N)=O)NC(=O)CNC(=O)[C@@H]1CCCN1C(=O)[C@H](CCCNC(=N)N)NC(=O)[C@@H](N)Cc1ccc(O)cc1)C(=O)N[C@@H](Cc1ccccc1)C(=O)N[C@H](CO)C(=O)O (H-YRPGQYAF[dS]-OH; N-terminus assumed) in terms of pEC50 is 8.06

// field: pEC50; key: CC(C)[C@H](NC(=O)[C@@H](N)Cc1ccc(O)cc1)C(=O)N1CCC[C@H]1C(=O)NCC(=O)N[C@@H](CCC(N)=O)C(=O)N[C@@H](Cc1ccccc1)C(=O)N[C@@H](C)C(=O)N[C@@H](Cc1ccccc1)C(=O)N[C@H](Cc1ccccc1)C(=O)O (H-YVPGQFAF[dF]-OH; N-terminus assumed) ; value = 8.38

Where do the numbers come from? From paper PMC3351444.
